I'd be grateful if you could share measured Production rate of Alvocidib for these entries.
assay: Stability evaluation of solution formulation (Experimental Example 2); type: physicochemical; conditions: solution formulation, pH4.0, 4 week
Give bare numbers, in %.

As a guide, the following entries are already answered.
| Molecule | Metric | Output Unit | Recorded Result |
| --- | --- | --- | --- |
| CCCN(C[C@@H]1CCCCN1)C(=O)Oc1cc(O)c2c(=O)cc(-c3ccccc3Cl)oc2c1[C@H]1CCN(C)C[C@H]1O [Example 5] | Production rate of Alvocidib | % | 0.5 |
| CCN(C[C@H]1CCCCN1)C(=O)Oc1cc(O)c2c(=O)cc(-c3ccccc3Cl)oc2c1[C@H]1CCN(C)C[C@H]1O [Example 2] | Production rate of Alvocidib | % | 0.3 |
| CN1CC[C@H](c2c(OC(=O)N(C)CCN)cc(O)c3c(=O)cc(-c4ccccc4Cl)oc23)[C@H](O)C1 [Comparative Example 13, reference compound] | Production rate of Alvocidib | % | 4.8 |

Quick one: give me Production rate of Alvocidib for each item below, same order please.
1. CNCCN(C)C(=O)Oc1cc(O)c2c(=O)cc(-c3ccccc3Cl)oc2c1[C@H]1CCN(C)C[C@H]1O [Comparative Example 14, reference compound]
2. CCCN(C[C@H]1CCCCN1)C(=O)Oc1cc(O)c2c(=O)cc(-c3ccccc3Cl)oc2c1[C@H]1CCN(C)C[C@H]1O [Example 6]
3. CCN(C[C@@H]1CCCCN1)C(=O)Oc1cc(O)c2c(=O)cc(-c3ccccc3Cl)oc2c1[C@H]1CCN(C)C[C@H]1O [Example 1, ditrifluoroacetate]

**A:**
1. 36.2
2. 0.9
3. 0.4

---

test: Evaluation of conversion rate to active form in buffer solution (Experimental Example 1); type: physicochemical; settings: pH5.0, 0 hr, 37° C., 25 umol/L in buffer solution
Structures can show the parent of a compound that is named as a salt.
I'd be grateful if you could share measured Production rate of Alvocidib for these entries.
Answers are plain numbers, in %.

| Molecule | Output Unit | Production rate of Alvocidib |
| --- | --- | --- |
| CCNC(=O)Oc1cc(O)c2c(=O)cc(-c3ccccc3Cl)oc2c1[C@H]1CCN(C)C[C@H]1O [Comparative Example 1, reference compound] | % | 8.4 |
| CCCN(CC1CCCCN1)C(=O)Oc1cc(O)c2c(=O)cc(-c3ccccc3Cl)oc2c1[C@H]1CCN(C)C[C@H]1O (stereo partly drawn) | % | 1.4 |
| CN1CC[C@H](c2c(OC(=O)N(CCF)CC3CCCCN3)cc(O)c3c(=O)cc(-c4ccccc4Cl)oc23)[C@H](O)C1 (stereo partly drawn) | % | 0.2 |

Quick one: give me Production rate of Alvocidib for each item below, same order please.
1. CCN(C[C@@H]1CCCCN1)C(=O)Oc1cc(O)c2c(=O)cc(-c3ccccc3Cl)oc2c1[C@H]1CCN(C)C[C@H]1O [Example 1, ditrifluoroacetate]
2. CCN(CC1CCCCN1)C(=O)Oc1cc(O)c2c(=O)cc(-c3ccccc3Cl)oc2c1[C@H]1CCN(C)C[C@H]1O (stereo partly drawn) [Example 7, dihydrochloride]
3. CN1CC[C@H](c2c(OC(=O)N(CCCC(F)(F)F)CC3CCCCN3)cc(O)c3c(=O)cc(-c4ccccc4Cl)oc23)[C@H](O)C1 (stereo partly drawn)

**A:**
1. 0.0
2. 0.0
3. 29.2

Taken from patent US12617779B2.
